- assayed-system: UniProt:P06276
Catalogue of compounds with associated IC50
Kindly answer with a numeric value in µM, unit omitted.

These solved cases illustrate the format of a correct answer.
smiles-code: COc1cc(/C=C/C(=O)Nc2ccccc2)ccc1OCCCCCCCCCCN(C)C
IC50, µM: 20.6

smiles-code: COc1cc(/C=C/C(=O)Nc2ccccc2)ccc1OCCCCCCCCN(C)C
IC50, µM: 10.4

smiles-code: CCN(CC)CCCCCCCCCCOc1ccc(/C=C/C(=O)Nc2ccccc2)cc1OC
IC50, µM: 8.47

smiles-code: CCN(CC)CCCCCCCCOc1ccc(/C=C/C(=O)O)cc1OC
IC50, µM: 302

Summary line: COc1cc(/C=C/C(=O)Nc2ccccc2)ccc1OCCCCCCN(C)C , UniProt:P06276, reported IC50 = 6.72

Summary line: COc1cc(/C=C/C(=O)Nc2ccccc2)ccc1OCCCCCN1CCCCC1 , UniProt:P06276, reported IC50 = 5.9

Summary line: COc1cc(/C=C/C(=O)Nc2ccccc2)ccc1OCCCCCCCCN1CCCC1 , UniProt:P06276, reported IC50 = 4.03

Summary line: COc1cc(/C=C/C(=O)Nc2ccccc2)ccc1OCCCCCCCCCCN1CCCCC1 , UniProt:P06276, reported IC50 = 4.84

Summary line: COc1cc(/C=C/C(=O)Nc2ccccc2)ccc1OCCCN(C)C , UniProt:P06276, reported IC50 = 20

Summary line: CCN(CC)CCCCCOc1ccc(/C=C/C(=O)Nc2ccccc2)cc1OC , UniProt:P06276, reported IC50 = 22.1

Summary line: COc1cc(/C=C/C(=O)O)ccc1OCCCCCCN1CCCCC1 , UniProt:P06276, reported IC50 = 146

---

So I've got IC50 readings for Cholinesterase (Homo sapiens), take a look.

These solved cases illustrate the format of a correct answer.
smiles-code: COc1cc(/C=C/C(=O)Nc2ccccc2)ccc1OCCCN1CCCCC1
IC50: 4.78 µM

smiles-code: COc1cc(/C=C/C(=O)Nc2ccccc2)ccc1OCCCCCCCCCCN1CCCC1
IC50: 2.99 µM

smiles-code: COc1cc(/C=C/C(=O)Nc2ccccc2)ccc1OCCN1CCCC1
IC50: 12.7 µM

Summary line: COc1cc(/C=C/C(=O)Nc2ccccc2)ccc1OCCCCCN(C)C , Cholinesterase (Homo sapiens), reported IC50 = 12.1 µM

---

- method-summary: Octanol-water partition coefficient, log P of the compound at pH 7.4 by shake flask method
- Type: physicochemical
measured-property: logD
Just the number, please, no unit after it.

compound: CCN(CC)CCCOc1ccc(/C=C/C(=O)Nc2ccccc2)cc1OC
logD: 1.57

compound: COc1cc(/C=C/C(=O)Nc2ccccc2)ccc1OCCCN1CCCCC1
logD: 1.58

compound: CCN(CC)CCCCCCCCOc1ccc(/C=C/C(=O)Nc2ccccc2)cc1OC
logD: 1.75

logD in this record for COc1cc(/C=C/C(=O)Nc2ccccc2)ccc1OCCCCCN(C)C : 1.61

logD in this record for CCN(C)C(=O)Oc1cccc([C@H](C)N(C)C)c1 [RIVASTIGMINE] : 1.68

logD in this record for COc1cc(/C=C/C(=O)Nc2ccccc2)ccc1OCCCCCCN1CCCCC1 : 1.77

logD in this record for CCN(CC)CCCCCCCCCCOc1ccc(/C=C/C(=O)Nc2ccccc2)cc1OC : 1.83

logD in this record for COc1cc(/C=C/C(=O)Nc2ccccc2)ccc1OCCN1CCCCC1 : 1.56

logD in this record for CCOC(=O)/C=C/c1ccc(OCCCCCCN(CC)CC)c(OC)c1 : 1.8

logD in this record for COc1cc(/C=C/C(=O)Nc2ccccc2)ccc1OCCCCN1CCCC1 : 1.6

logD in this record for CCOC(=O)/C=C/c1ccc(OCCCCCCCCN(CC)CC)c(OC)c1 : 1.98

All figures here come from ChEMBL document CHEMBL3994591.
